Recorded aptazyme ON/OFF ratio values for a group of variants are listed next.
B1: Pistol ribozyme (parent)
chain: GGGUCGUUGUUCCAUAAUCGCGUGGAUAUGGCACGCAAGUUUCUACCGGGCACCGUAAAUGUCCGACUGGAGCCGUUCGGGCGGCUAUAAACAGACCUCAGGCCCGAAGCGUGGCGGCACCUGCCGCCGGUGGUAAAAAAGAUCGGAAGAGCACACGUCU

Variants of: B1
assay explanation: aptazyme ON/OFF ratio, guanine; higher = stronger switching; co-transcriptional cleavage with and without guanine
quantity measured: aptazyme ON/OFF ratio

> print(dat)
                      mutation.code  experimental.value
 1      U7C U8G U10G U11C C12A C13U                1.42
 2           U8A G9C U11G C12U C13A                1.31
 3  U7C U8C G9A U10G U11G C12A C13A                 1.2
 4          G9C U10C U11A C12U C13U                1.06
 5                    U7A U11G C13G                1.05
 6            U7A U8A G9U U10C C13G                1.03
 7  U7G U8A G9A U10A U11G C12U C13G                1.24
 8       U7A U8G G9U U11G C12A C13U                 1.2
 9                U7C G9C U10G C12A                1.12
10           U7A U8A U10C U11A C12G                1.19
11           U7G U8A U11A C12U C13U                1.36
12               U8A U10A U11C C12A                1.09
13                   U10G C12U C13U                1.15
14       U7G U8G G9U U10C C12U C13A                1.22
15                     U8G G9U U10C                1.51
16                     U7C U8A C12U                1.68
17      U7C U8C U10G U11G C12U C13A                 1.1
18                U7A G9C U10A C13U                1.18
19       U7C U8G G9C U10C C12U C13G                1.08
20               U8G U11C C12U C13G                1.29
21            U7C U8C G9U U11C C13G                1.02
22      U7G G9A U10G U11C C12G C13A                1.08
